Attribution: PubChem BioAssay (NCATS)

biological target: Pyruvate kinase (Leishmania mexicana); experiment: qHTS Validation Assay for Activators of Leishmania Mexicana Pyruvate Kinase (AID 959); details: purified L. mexicana pyruvate kinase, enzyme activity; series mostly up to 57.5 µM
Active and inactive are the calls of the source. Calls come from the whole dose curve; as a rule, active = well fitted activation curve with a large enough effect; inconclusive = small, poorly fitted or top-dose-only effect; inactive = no such curve, though single readings can be large or run the other way.
Classes used: active, inactive

{"STRUCTURE SMILES STRING": "O=Nc1c(-c2c(O)[nH]c3ccccc23)[nH]c2ccccc12", "ASSAYED SYSTEM": "Pyruvate kinase (Leishmania mexicana)", "GROUP": "inactive"}
{"STRUCTURE SMILES STRING": "N[C@]1(C(=O)O)CCc2cc(C(=O)O)ccc21", "ASSAYED SYSTEM": "Pyruvate kinase (Leishmania mexicana)", "GROUP": "active"}
{"STRUCTURE SMILES STRING": "N#C/C(=C\\c1ccc(O)c(O)c1)C(=O)Nc1ccccc1", "ASSAYED SYSTEM": "Pyruvate kinase (Leishmania mexicana)", "GROUP": "inactive"}
{"STRUCTURE SMILES STRING": "Fc1cccc(/C=N\\N=C/c2cccc(F)c2)c1", "ASSAYED SYSTEM": "Pyruvate kinase (Leishmania mexicana)", "GROUP": "inactive"}
{"STRUCTURE SMILES STRING": "CN(C)c1ccc(/C=C2/C(=O)Nc3ccccc32)cc1", "ASSAYED SYSTEM": "Pyruvate kinase (Leishmania mexicana)", "GROUP": "inactive"}
{"STRUCTURE SMILES STRING": "Cc1cccc(/C=C\\c2ccccc2)n1", "ASSAYED SYSTEM": "Pyruvate kinase (Leishmania mexicana)", "GROUP": "inactive"}

----------
system: Zika virus NS2B-NS3 protease; experiment: Primary screen GU AMC qHTS for Zika virus inhibitors (AID 1347154); conditions: Zika NS2B-NS3 unlinked protease, AMC fluorogenic substrate; series mostly up to 54.1 µM;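 note: 0% = no-inhibitor control and -100% = no-enzyme control; nearly all actives have a fitted effect of over 70% in size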
Results filed as inconclusive are left out. Calls of active or inactive are those of the source. Calls come from the whole dose curve; as a rule, active = well fitted inhibition curve with a large enough effect; inconclusive = small, poorly fitted or top-dose-only effect; inactive = flat fitted curve, though single readings scatter.
PROPERTY: activity change, negative = inhibition

{"MOLECULE": "COC(=O)[C@@H](c1ccccc1Cl)N1CCc2sccc2C1", "RESULT VALUE": "inactive"}
{"MOLECULE": "COc1ccc(-c2ccc(=N)n(CCCC(=O)O)n2)cc1", "RESULT VALUE": "inactive"}
{"MOLECULE": "C=C1/C(=C\\C=C2/CCC[C@]3(C)C([C@H](C)CCCC(C)(C)O)CC[C@@H]23)C[C@@H](O)C[C@@H]1O (stereo not given in full)", "RESULT VALUE": "14.5% [at 6.83 µM] (inactive)"}
{"MOLECULE": "NS(=O)(=O)c1cccc2c1c([N+](=O)[O-])cc1[nH]c(=O)c(=O)[nH]c12", "RESULT VALUE": "inactive"}
{"MOLECULE": "N[C@H](C(=O)O)c1nn[nH]n1", "RESULT VALUE": "inactive"}

----------
Experiment: SW1088 Cancer Cell Toxicity qHTS against the NCATS CANVASS Library (AID 1347350); note: nearly all actives have a fitted effect of over 75% in size; note: potency is the fitted concentration of half-maximal effect
Settings: SW1088 viability, CellTiter-Glo luminescence, 72 h; series mostly up to 38.3 µM
Source text: Natural products and their derivatives continue to be wellsprings of nascent therapeutic potential. […] To address this issue, the Canvass library of natural products was assembled (https://tripod.nih.gov/canvass), in collaboration with academic and industry researchers, for quantitative high-throughput screening (qHTS) across a diverse set of cell-based and biochemical assays. […]
Records with an inconclusive call do not appear. Activity calls are given as the source filed them. Calls follow the shape of the dose curve; as a rule, active = well fitted cell-killing curve with a large enough effect; inconclusive = small, poorly fitted or top-dose-only effect; inactive = flat fitted curve, though single readings scatter.

{"COMPOUND": "C/C=C1/CC[C@@H]2c3[nH]c4ccccc4c3CCN2C1", "Potency": "inactive"}
{"COMPOUND": "C[C@@]12C[C@@H](C[C@H]3C(=O)O[C@@H](c4ccoc4)[C@H](OC(=O)c4ccccc4)[C@@H]31)OC2=O", "Potency": "inactive"}
{"COMPOUND": "C[C@@]12CCC[C@@](C)(C(=O)O)[C@H]1CC[C@]13C[C@H]4C[C@H](O[C@@]4(C)C1)[C@H]32", "Potency": "inactive"}
{"COMPOUND": "CCCCCCCCC[C@@H]1C[C@@H]2CC[C@H]3[C@@H](C(=O)OCCCCN=C(N)N)[C@@H](C)N=C(N1)N23", "Potency": "13.1 µM (active)"}
{"COMPOUND": "CCCCCCCCCCCCCCCC(=O)OC/C=C(\\C)CCCC(C)CC(C)C(C)C (centres undefined)", "Potency": "inactive"}
{"COMPOUND": "C=C1C[C@@]23C=CC(=O)[C@@](C)(CCC(=O)Nc4c(O)ccc(C(=O)O)c4O)C2C[C@@H]1CC3O (some centres undefined)", "Potency": "inactive"}
{"COMPOUND": "CC(=O)O[C@@H]1C=C2C(=O)OC[C@]2(O)[C@@]2(C)CCCC(C)(C)[C@H]12", "Potency": "5.3 µM (active)"}
{"COMPOUND": "C1=C2CCCN[C@@H]2[C@@H]2CCN3CCCC[C@@H]3[C@H](C1)C2", "Potency": "inactive"}
{"COMPOUND": "CCC1=C2CCCN3C(=O)O[C@H]([C@H]1OC(C)=O)[C@H]23", "Potency": "inactive"}

----------
assay: G06 Cancer Cell Toxicity qHTS against the NCATS CANVASS Library (AID 1347368); details: G06 dog glioma cells, viability ATP luminescence, 72 h; series mostly up to 46.1 µM; note: nearly all actives have a fitted effect of over 60% in size
Inconclusive results are not listed. Activity calls are given as the source filed them. Calls follow the shape of the dose curve; as a rule, active = well fitted cell-killing curve with a large enough effect; inconclusive = small, poorly fitted or top-dose-only effect; inactive = flat fitted curve, though single readings scatter.
Outcomes: active, inactive

{"COMPOUND": "C[C@]12CC[C@]3(C1)[C@H](CC2=O)CC(OC(=O)c1ccccc1)[C@H]1[C@@](CO)(C(=O)O)CCC[C@@]13C (stereo partly specified)", "GROUP": "active"}
{"COMPOUND": "C=C1C[C@@]23C=CC(=O)[C@@](C)(CCC(=O)Nc4c(OC5O[C@H](CO)[C@@H](O)[C@H](O)[C@H]5O)ccc(C(=O)O)c4O)C2C[C@@H]1CC3 (stereo partly specified)", "GROUP": "inactive"}
{"COMPOUND": "C[C@@H]1C(=O)[C@]23CC[C@H]1C[C@]21O[C@H]2C(C)(C)C=CC(=O)[C@@]23COC1=O", "GROUP": "inactive"}
{"COMPOUND": "C[C@@H]1O[C@@H](Oc2c(-c3ccc(O)cc3)oc3cc(O)cc(O)c3c2=O)[C@H](O)[C@H](O)[C@H]1O", "GROUP": "inactive"}
{"COMPOUND": "CC1(C)C=Cc2c(ccc3c2OC[C@@H](c2ccc(O)cc2O)C3)O1", "GROUP": "inactive"}
{"COMPOUND": "C=C1C(=O)O[C@H]2[C@H]1CC/C(CO)=C\\CC[C@@]1(C)O[C@@H]21", "GROUP": "active"}
{"COMPOUND": "O=C(OC1Cc2c(O)cc(O)cc2OC1c1cc(O)c(O)c(O)c1)c1cc(O)c(O)c(O)c1 (stereo unspecified)", "GROUP": "inactive"}
{"COMPOUND": "CO[C@@H]1C[C@@H](C[C@H]2CC[C@H](C)[C@H]([C@@H](C)C(=O)O)O2)O[C@]2(O[C@](C)([C@H]3CC[C@@](C)([C@@H]4O[C@@H]([C@H]5O[C@](C)(O)[C@H](C)C[C@@H]5C)C[C@@H]4C)O3)C[C@H]2C)[C@@H]1C", "GROUP": "active"}
{"COMPOUND": "COc1ccc2cc(NC(=O)C3=NO[C@H]4[C@H](O)C=C[C@@H](Cl)[C@@]4(O)C3)c(=O)oc2c1OC", "GROUP": "active"}
{"COMPOUND": "CC1=CC2=C[C@H](C)C[C@@]23OC(=C(C)C3=O)CC(C)(C)/C=C/C1=O", "GROUP": "active"}
{"COMPOUND": "COc1cc(O)c2c3c(c(O)cc(C)c13)C(=O)OC2", "GROUP": "inactive"}
{"COMPOUND": "C/C=C1/CC[C@@H]2c3[nH]c4ccccc4c3CCN2C1", "GROUP": "inactive"}
{"COMPOUND": "C[C@@H]1C[C@H]2C[C@]3(CCCCN3C)[C@@H]3C[C@H]2[C@H](C1)N(C)C3", "GROUP": "active"}
{"COMPOUND": "CC(=O)[C@@H]1[C@@H](O)C[C@H]2[C@]3(C)CC[C@H]4C(C)(C)CCC[C@]4(CO)[C@H]3C[C@H]3OC(=O)[C@@H]1[C@@]32C", "GROUP": "inactive"}
{"COMPOUND": "CCC1=C2CCCN3C(=O)O[C@H]([C@H]1OC(C)=O)[C@H]23", "GROUP": "inactive"}
{"COMPOUND": "O=Cc1ccc2n1C[C@@]1(C[C@H](O)[C@H](O)CO1)OC2", "GROUP": "inactive"}

----------
// max response lookup, one value per entry
experiment: qHTS Assay for Lipid Storage Modulators (AID 1519); conditions: Drosophila S3 cells, BODIPY lipid droplet/cell ratio, laser cytometry; measured here: cell count channel max response; cells loaded with oleic acid
Records with an inconclusive call do not appear.

{"STRUCTURE SMILES STRING": "Cc1cccc(/C=C/c2ccccc2)n1", "max response": "54.4%"}
{"STRUCTURE SMILES STRING": "O=C(O)Cc1cc(I)c(Oc2cc(I)c(O)c(I)c2)c(I)c1", "max response": "12.2%"}
{"STRUCTURE SMILES STRING": "N[C@H](C(=O)O)c1nn[nH]n1", "max response": "-0.925%"}
